Test: physchem
Settings: not applicable
measured-attribute: remaining at 168 h (%)
Response body: numeric value in %, unit text excluded.

// query What value of remaining at 168 h has been reported for the following compound? CC[C@H](C)[C@@H]1NC(=O)[C@@H]2CCCN2C(=O)[C@H](CO)NC(=O)[C@H](CCSC)NC(=O)[C@H](C)NC(=O)[C@H](CO)NC(=O)[C@@H]2CSSC[C@H](NC(=O)CN)C(=O)N[C@@H](CSSC[C@@H](C(N)=O)NC1=O)C(=O)N[C@@H](CO)C(=O)N[C@@H](Cc1cnc[nH]1)C(=O)N1CCC[C@H]1C(=O)N[C@@H](C(C)C)C(=O)N2
// result 95

Source: paper PMC6722883
